biological target: TBK1 (Homo sapiens); construct: His-tag; made in house; host or cells: Sf9 insect cells; assay: In-vitro TBK1 kinase assay ([γ33]ATP filter-plate); assay type: biochemical; details: text bins; read-out: IC50 for inhibition of the kinase activity of TBK1
Measured quantity: IC50

// known answers, use as guide
>>> value_reported("COC1CN(Cc2ccc(Nc3nccc(-c4ccc(OC5CCOCC5)c(C#N)c4)n3)cc2)C1")
"< 0.01 µM"
>>> value_reported("CNS(=O)(=O)Cc1ccc(Nc2nccc(-c3ccc(OCC4CC4)c(C#N)c3)n2)cc1")
"< 0.01 µM"
>>> value_reported("CN1CCN(c2ccc(Nc3nccc(-c4ccc(OC5CCOCC5)c(C#N)c4)n3)cc2)CC1")
"< 0.01 µM"
>>> value_reported("COc1cc(Nc2nccc(-c3ccc(OC4CCOCC4)c(C#N)c3)n2)ccc1C(=O)NC1CCN(C)CC1")
"< 0.01 µM"
>>> value_reported("COc1cc(NC(=O)NC2CCCC2)cc(Nc2nccc(-c3ccc(OC)c(C#N)c3)n2)c1")
"0.01 to 0.1 µM"

Data request, read-out IC50, for "CS(=O)(=O)N1CCC(COc2ccc(-c3ccnc(Nc4ccc(N5CCOCC5)cc4)n3)cc2C#N)CC1"
< 0.01 µM

Endpoint output: IC50 of "CNS(=O)(=O)Cc1ccc(Nc2nccc(-c3ccc(NC(=O)C(C)C)c(C#N)c3)n2)cc1" . Value?
0.01 to 0.1 µM

For "CC(C)C(=O)Nc1ccc(-c2ccnc(Nc3cccc(CC(=O)NCCCN4CCOCC4)c3)n2)cc1C#N" , what is its reported IC50?
0.01 to 0.1 µM

Look up IC50: "N#Cc1cccc(-c2ccnc(Nc3ccc4[nH]ncc4c3)n2)c1"
0.1 to 0.5 µM

----------
molecular target: IKKε (Homo sapiens, UniProt Q14164); construct: His-tag; made in house; host or cells: Sf9 insect cells; assay: In-vitro IKKε kinase assay ([γ33]ATP filter-plate); assay type: biochemical; details: text bins; read-out: IC50 for inhibition of the kinase activity of IKKε
Sequence (Q14164 whole entry): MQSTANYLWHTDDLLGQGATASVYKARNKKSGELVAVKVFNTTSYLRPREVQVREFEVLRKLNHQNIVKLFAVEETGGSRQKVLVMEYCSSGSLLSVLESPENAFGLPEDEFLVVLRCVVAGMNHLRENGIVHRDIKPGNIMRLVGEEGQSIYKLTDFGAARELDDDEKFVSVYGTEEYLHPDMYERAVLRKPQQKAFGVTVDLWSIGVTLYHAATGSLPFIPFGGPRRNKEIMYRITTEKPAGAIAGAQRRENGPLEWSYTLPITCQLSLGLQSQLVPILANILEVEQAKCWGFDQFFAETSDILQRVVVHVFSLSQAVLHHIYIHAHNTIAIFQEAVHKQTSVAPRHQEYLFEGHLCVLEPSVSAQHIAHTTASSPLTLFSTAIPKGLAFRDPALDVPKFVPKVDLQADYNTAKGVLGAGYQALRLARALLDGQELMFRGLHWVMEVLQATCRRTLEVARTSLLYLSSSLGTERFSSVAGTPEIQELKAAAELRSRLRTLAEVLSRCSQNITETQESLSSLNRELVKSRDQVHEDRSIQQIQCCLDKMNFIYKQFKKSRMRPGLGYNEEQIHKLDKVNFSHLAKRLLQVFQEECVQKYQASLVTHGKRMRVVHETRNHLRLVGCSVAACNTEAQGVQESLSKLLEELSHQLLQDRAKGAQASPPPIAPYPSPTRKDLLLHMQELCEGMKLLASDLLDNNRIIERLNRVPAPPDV
Measured quantity: IC50

Worked examples follow.
>>> value_reported("COc1cc(Nc2nccc(-c3ccc(OC4CCOCC4)c(C#N)c3)n2)ccc1OCCOCCN")
"< 5 nM"
>>> value_reported("CN(C)CC(=O)N1CCC(Oc2ccc(-c3ccnc(Nc4ccc(N5CCOCC5)cc4)n3)cc2C#N)CC1")
"50 to 500 nM"
>>> value_reported("COc1cc(Nc2nccc(-c3ccc(OC4CCOCC4)c(C#N)c3)n2)ccc1C(=O)N1CC(N(C)C)C1")
"< 5 nM"
>>> value_reported("CN(C)CCN(C)c1cccc(Nc2nccc(-c3ccc(OC4CCOCC4)c(C#N)c3)n2)c1")
"< 5 nM"
>>> value_reported("COc1cc(Nc2nccc(-c3ccc(OC4CCNCC4)c(C#N)c3)n2)ccc1N1CCOCC1")
"5 to 50 nM"

Can you share its IC50? I mean this molecule: "COc1cc(Nc2nccc(-c3ccc(OC4CCOCC4)c(C#N)c3)n2)ccc1S(=O)(=O)N1CCN(C)CC1"
< 5 nM

Using the record for COC(=O)C(C)Oc1ccc(-c2ccnc(Nc3ccc(N4CCOCC4)cc3)n2)cc1C#N (centres unmarked) , report its IC50.
5 to 50 nM

Which measured IC50 value corresponds to "C[C@H](O)C(=O)N1CCC(Oc2ccc(-c3ccnc(Nc4ccc(C(=O)N(C)CCN(C)C)cc4)n3)cc2C#N)CC1" ?
< 5 nM

Can you look up the measured IC50 of CC(=O)OC(C)C(=O)Nc1ccc(-c2ccnc(Nc3ccc(N4CCOCC4)cc3)n2)cc1C#N (centres unmarked) for me?
50 to 500 nM

Which IC50 is reported for this molecule? "N#Cc1cc(-c2ccnc(Nc3cccc(N4CCC[C@H]4CO)c3)n2)ccc1O[C@@H]1CCN(C(=O)CO)C1"
< 5 nM

Give its IC50 value. Item: "N#Cc1cc(-c2ccnc(Nc3ccc(N4CCOCC4)cc3)n2)ccc1OCCC1CCN(C(=O)CO)CC1"
5 to 50 nM

----------
Listed here are compounds together with their documented pIC50.
Biological target: TBK1 (Homo sapiens, UniProt Q9UHD2)
Construct: His-tag; made in house; host or cells: Sf9 insect cells
Sequence (Q9UHD2 1-729): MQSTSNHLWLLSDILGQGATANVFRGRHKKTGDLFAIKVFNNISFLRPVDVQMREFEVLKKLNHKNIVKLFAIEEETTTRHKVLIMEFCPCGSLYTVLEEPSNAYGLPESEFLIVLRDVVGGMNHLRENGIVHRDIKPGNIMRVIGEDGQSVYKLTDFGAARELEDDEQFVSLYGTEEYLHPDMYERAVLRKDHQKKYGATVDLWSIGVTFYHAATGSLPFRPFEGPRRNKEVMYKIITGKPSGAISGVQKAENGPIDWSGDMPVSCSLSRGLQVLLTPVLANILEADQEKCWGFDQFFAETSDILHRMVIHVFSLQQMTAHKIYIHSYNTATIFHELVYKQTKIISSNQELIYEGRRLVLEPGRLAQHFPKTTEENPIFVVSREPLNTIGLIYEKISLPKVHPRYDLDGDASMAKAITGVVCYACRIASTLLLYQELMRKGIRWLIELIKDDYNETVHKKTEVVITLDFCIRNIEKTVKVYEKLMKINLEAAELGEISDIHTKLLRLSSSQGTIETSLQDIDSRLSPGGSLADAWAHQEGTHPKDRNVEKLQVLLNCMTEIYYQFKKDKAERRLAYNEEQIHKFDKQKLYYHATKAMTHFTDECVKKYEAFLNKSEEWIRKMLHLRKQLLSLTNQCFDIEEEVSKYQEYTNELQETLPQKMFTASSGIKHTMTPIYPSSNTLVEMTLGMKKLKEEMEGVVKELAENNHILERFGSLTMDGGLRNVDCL
Assay: In-vitro TBK1 kinase assay ([γ33]ATP filter-plate)
Format: biochemical
Conditions: text bins; read-out: IC50 for inhibition of the kinase activity of TBK1
pIC50: −log10 of the molar value.

Guide cases for pIC50, answers given:
>>> value_reported("CC(C)C(=O)Nc1ccc(-c2ccnc(Nc3ccc(F)c(OCCCN4CCOCC4)c3)n2)cc1C#N [compound 411]")
"7.00 to 8.00"
>>> value_reported("COc1cc(Nc2nccc(-c3ccc(OC4CCOCC4)c(C#N)c3)n2)ccc1OCCOCCN [Example 21]")
"> 8.00"
>>> value_reported("COc1ccc(Nc2nccc(-c3ccc(NC(=O)C(C)C)c(C#N)c3)n2)cc1OCCCN1CCOCC1 [compound 433]")
"> 8.00"
>>> value_reported("N#Cc1cc(-c2ccnc(Nc3ccc(N4CCOCC4)cc3)n2)ccc1OCC1CCN(C(=O)CO)CC1 [Example 233]")
"> 8.00"
>>> value_reported("COc1cc(NC(=O)CCSC)cc(Nc2nccc(-c3ccc(OC)c(C#N)c3)n2)c1 [compound 339]")
"7.00 to 8.00"
>>> value_reported("N#Cc1cc(-c2ccnc(Nc3ccc(CO)cc3)n2)ccc1OC1CCOCC1 [compound 499]")
"> 8.00"
>>> value_reported("N#Cc1cc(-c2ccnc(Nc3ccc(N4CCOCC4)cc3)n2)ccc1OC1CCN(C(=O)CO)C1 (stereo not drawn) [Example 96]")
"> 8.00"
>>> value_reported("N#Cc1cc(-c2ccnc(Nc3ccc(N4CCOCC4)cc3)n2)ccc1OCCO [Example 239]")
"> 8.00"

In the following, a different compound is considered.
What does the data say about its pIC50? Entry: CN1CCN(c2ccc(Nc3nccc(-c4ccc(OC5CCN(C(=O)CO)C5)c(C#N)c4)n3)cc2)CC1 (stereo not drawn) [Example 254]
> 8.00

----------
Recorded pIC50 for the following compounds
Molecular target: IKKε (Homo sapiens, UniProt Q14164)
Construct: His-tag; made in house; host or cells: Sf9 insect cells
Assay: In-vitro IKKε kinase assay ([γ33]ATP filter-plate)
Type: biochemical
Conditions: text bins; read-out: IC50 for inhibition of the kinase activity of IKKε
Procedure: IKKε enzyme was produced as a His-tag fusion in Sf9 cells and used at a final concentration of […]. TBK1 enzyme was produced as a His-tag fusion in Sf9 cells and used at a final concentration of 0.1 μg/ml. […] After air drying, scintillant (PerkinElmer, Waltham, Mass.) was added and the plates were read on a PerkinElmer TopCount NXT instrument. […]
pIC50: −log10 of the molar value.

Here are 3 compounds together with their reported answers.
>>> value_reported("COc1ccc(Nc2nccc(-c3cccc(C#N)c3)n2)cc1Cl")
"7.30 to 8.30"
>>> value_reported("CC(=O)N1CCC(Oc2ccc(-c3ccnc(Nc4ccc(N5CCOCC5)cc4)n3)cc2C#N)C1 (stereo not shown)")
"7.30 to 8.30"
>>> value_reported("CCc1cccc(Nc2nccc(-c3ccc(O[C@@H]4CCN(C(=O)CO)C4)c(C#N)c3)n2)c1")
"> 8.30"

Moving on to another compound below.
I'm curious: which pIC50 was measured for "COc1ccc(-c2ccnc(Nc3cccc(NC(C)=O)c3)n2)cc1C#N" tested on IKKε (Homo sapiens, UniProt Q14164)?
7.30 to 8.30
